Quick reference: chromatographic logP of the listed items.
Assay: Log P by HPLC on reversed phase columns (EEC directive 79/831 Annex V.A8)
Format: physicochemical
Conditions: reversed phase HPLC columns, method [a]: LC-UV, acidic range, 0.1% formic acid in water and acetonitrile as eluent; read-out: LogP
Observation Type: chromatographic logP

{"Molecule": "CCOC(=O)C1(NC(=O)c2sc(Cl)c(Cl)c2I)CC1 [XXI.08]", "Reported": 3.39}
{"Molecule": "O=C(NC1(C(=O)O)CC1)c1sc(Br)c(Br)c1F [XXI.03]", "Reported": 2.14}
{"Molecule": "CCOC(=O)C1(NC(=O)c2sc(Br)c(Br)c2F)CC1 [XXI.01]", "Reported": 3.17}
{"Molecule": "CCOC(=O)C1(NC(=O)c2sc(Cl)c(Cl)c2C)CC1 [XXI.11]", "Reported": 3.16}

----------
Assay: Log P by HPLC on reversed phase columns (EEC directive 79/831 Annex V.A8)
Type: physicochemical
Conditions: method [a]: LC-UV, acidic range, 0.1% formic acid in water and acetonitrile as eluent
Recorded LogP by entry
Observation Type: LogP

{"Structure String": "Cl.Nc1c(C(=O)O)sc(Cl)c1Cl", "Reported": "2.05^[a]"}
{"Structure String": "O=C1OC(c2sc(Br)c(Br)c2Br)=NC12CC2", "Reported": "4.15^[a]"}
{"Structure String": "COC(=O)c1sc(Cl)c(Cl)c1Br", "Reported": "4.11^[a]"}
{"Structure String": "CCOC(=O)C1(NC(=O)c2sc(Cl)c(Cl)c2Cl)CC1", "Reported": "3.41^[a]"}
{"Structure String": "O=C(NC1(C(=O)O)CC1)c1sc(Cl)c(Cl)c1Br", "Reported": "2.37^[a]"}
{"Structure String": "CC(C)COC(=O)c1sc(Cl)c(Cl)c1Cl", "Reported": "5.75^[a]"}
